Target: UniProt E9AMP2
Assay: biochemical
Assay type: binding
Conditions: DSF, 10 µM compound, 2 µM LmxCLK1, mean of two runs
experimentalReadout: ΔTm Average

compound: Nc1ccc(-c2ccc3ncc4ccc(=O)n(-c5cccc(C(F)(F)F)c5)c4c3c2)cn1
experimentalReadout: ΔTm Average
result: 0.0 °C
//
compound: O=C(c1ccc(Nc2nccc(-c3cc4ccccc4s3)n2)cc1)N1CCC(N2CCCC2)CC1
experimentalReadout: ΔTm Average
result: 1.8 °C
//
compound: Cc1cc(F)c(Nc2ncnc3cc(OCc4ccccc4)ccc23)cc1O.Cl [ZM 323881 HCl]
experimentalReadout: ΔTm Average
result: 0.0 °C
//
compound: Cc1cc(Nc2cc(N3CCN(C)CC3)nc(Sc3ccc(NC(=O)C4CC4)cc3)n2)n[nH]1
experimentalReadout: ΔTm Average
result: -0.3 °C

---

Molecular target: LmxCLK1 (Leishmania mexicana, UniProt E9AMP2)
Sequence (E9AMP2 1-422): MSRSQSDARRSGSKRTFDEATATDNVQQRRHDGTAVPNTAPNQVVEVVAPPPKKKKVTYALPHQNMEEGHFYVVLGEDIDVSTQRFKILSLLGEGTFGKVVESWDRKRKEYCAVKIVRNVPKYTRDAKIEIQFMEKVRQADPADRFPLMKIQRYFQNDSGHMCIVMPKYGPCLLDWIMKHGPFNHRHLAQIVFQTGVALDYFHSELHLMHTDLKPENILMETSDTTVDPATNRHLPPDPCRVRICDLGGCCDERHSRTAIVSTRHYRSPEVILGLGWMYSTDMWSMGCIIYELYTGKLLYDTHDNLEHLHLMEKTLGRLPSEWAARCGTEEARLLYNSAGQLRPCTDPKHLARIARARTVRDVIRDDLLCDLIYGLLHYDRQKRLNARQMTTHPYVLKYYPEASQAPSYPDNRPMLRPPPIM
Test: biochemical
Type: binding
Conditions: DSF, 10 µM compound, 2 µM LmxCLK1, Run 1
Mark each entry satisfied if its ΔTm Run 1 sits below 0.1 °C, and not satisfied for all others.

compound: COc1cc2c(Nc3ccc(NC(=O)c4ccccc4)cc3)ncnc2cc1OCCCN1CCOCC1
systemTested: LmxCLK1 (Leishmania mexicana, UniProt E9AMP2)
classLabel: satisfied
--
compound: Cc1c(F)cc(C(=O)NC2CC2)cc1-c1ccc(C(=O)NCC(C)(C)C)cn1 [Losmapimod (GW856553X)]
systemTested: LmxCLK1 (Leishmania mexicana, UniProt E9AMP2)
classLabel: not satisfied
--
compound: CO[C@H]1C[C@@H]2CC[C@@H](C)[C@@](O)(O2)C(=O)C(=O)N2CCCC[C@H]2C(=O)O[C@H]([C@H](C)C[C@@H]2CC[C@@H](OCCO)[C@H](OC)C2)CC(=O)[C@H](C)/C=C(\C)[C@@H](O)[C@@H](OC)C(=O)[C@H](C)C[C@H](C)/C=C/C=C/C=C/1C [Everolimus (RAD001)]
systemTested: LmxCLK1 (Leishmania mexicana, UniProt E9AMP2)
classLabel: not satisfied
--
compound: COc1cc2ncnc(Nc3ccc(Cl)cc3F)c2cc1OC
systemTested: LmxCLK1 (Leishmania mexicana, UniProt E9AMP2)
classLabel: not satisfied
--
compound: COc1cc(OC)c(/C=C/S(=O)(=O)Cc2ccc(OC)c(NCC(=O)O)c2)c(OC)c1
systemTested: LmxCLK1 (Leishmania mexicana, UniProt E9AMP2)
classLabel: satisfied
--
compound: CNC(=O)c1ccccc1Nc1nc(Nc2ccc(N3CCOCC3)cc2OC)ncc1Cl
systemTested: LmxCLK1 (Leishmania mexicana, UniProt E9AMP2)
classLabel: not satisfied
--
compound: CSc1cccc(Nc2ncc3cc(-c4c(Cl)cccc4Cl)c(=O)n(C)c3n2)c1
systemTested: LmxCLK1 (Leishmania mexicana, UniProt E9AMP2)
classLabel: satisfied
--
compound: COc1cc2c(Oc3ccc4[nH]c(C)cc4c3F)ncnc2cc1OCCCN1CCCC1
systemTested: LmxCLK1 (Leishmania mexicana, UniProt E9AMP2)
classLabel: not satisfied
--
compound: COc1cc(N2CCC(N)CC2)ccc1Nc1ncc(Cl)c(-c2c[nH]c3ccccc23)n1
systemTested: LmxCLK1 (Leishmania mexicana, UniProt E9AMP2)
classLabel: not satisfied
--
compound: COc1ncc(-c2ccc3nccc(-c4ccnnc4)c3c2)cc1NS(=O)(=O)c1ccc(F)cc1F
systemTested: LmxCLK1 (Leishmania mexicana, UniProt E9AMP2)
classLabel: satisfied
--
compound: CCN(CC)CCCC(C)Nc1nc(C)cc(Nc2ccc3nc(C)cc(N)c3c2)n1 (stereo not drawn)
systemTested: LmxCLK1 (Leishmania mexicana, UniProt E9AMP2)
classLabel: satisfied
--
compound: CCCS(=O)(=O)Nc1ccc(F)c(C(=O)c2c[nH]c3ncc(-c4ccc(Cl)cc4)cc23)c1F
systemTested: LmxCLK1 (Leishmania mexicana, UniProt E9AMP2)
classLabel: satisfied
